System: Abutilon theophrasti
Test Method Notes: Post-emergence herbicidal action
Format: in vivo
Condition Parameters: Abutilon theophrasti, 504 h, 1280 g/ha, about 3 weeks after treatment, read-out: Abutilon theophrasti, herbicidal activity rated visually
The entries below come with measured pest or weed control at 1280 g/ha values attached.
Give me the value, and tack the unit on after it.

CC1=C(Cl)C(=O)N(c2nc(C3CC3)ns2)C1O (stereo not drawn)	100%
COC(=O)OC1C(C)=C(C)C(=O)N1c1nc(C2CC2)ns1 (stereo not drawn)	100%

Query CC1=C(C)C(O)N(c2nc(C(C)C)ns2)C1=O (stereo not drawn) yields pest or weed control at 1280 g/ha of 100%

Query CN1CC(O)N(c2ncns2)C1=O (stereo not drawn) yields pest or weed control at 1280 g/ha of 100%

Query CC(C)c1nsc(N2C(=O)N(C)CC2O)n1 (stereo not drawn) yields pest or weed control at 1280 g/ha of 100%

Query CCCc1nsc(N2C(=O)C(C)=C(C)C2O)n1 (stereo not drawn) yields pest or weed control at 1280 g/ha of 90%

---

System: Matricaria inodora
Test Method Notes: Pre-emergence herbicidal action
Type: in vivo
Condition Parameters: Tripleurospermum inodorum, 504 h, 1280 g/ha, after about 3 weeks, read-out: Matricaria inodora, herbicidal effect scored visually
Measured Endpoint: pest or weed control at 1280 g/ha (%)
Report the value in % with no unit label.

Example entries and their recorded answers appear below.
COC(=O)OC1C(C)=C(C)C(=O)N1c1nc(C2CC2)ns1 (stereo not shown) [I.17-11]	100
CC1=C(Cl)C(=O)N(c2nc(C3CC3)ns2)C1O (stereo not shown) [I.3-11]	100
CCc1nsc(N2C(=O)C(C)=C(C)C2O)n1 (stereo not shown) [I.2-3]	100
CC1=C(C)C(O)N(c2nc(C(C)C)ns2)C1=O (stereo not shown) [I.2-5]	100
CC(C)c1nsc(N2C(=O)N(C)CC2O)n1 (stereo not shown) [I.13-5]	90
CCCc1nsc(N2C(=O)C(C)=C(C)C2O)n1 (stereo not shown) [I.2-4]	100

# evaluate next
Query CC1=C(Cl)C(=O)N(c2nc(C(C)C)ns2)C1O (stereo not shown) [I.3-5] yields pest or weed control at 1280 g/ha of 90

---

Assayed Target: photosystem II (PS II) (Spinacia oleracea, UniProt P69560)
Construct: the chloroplasts were osmotically ruptured and the thylakoid membranes were then obtained by centrifugation; from tissue; host or cells: fresh spinach leaves; thylakoid membranes isolated from chloroplasts
Test Method Notes: Measurement of the PS II activity in thylakoid membranes (DCPIP reduction)
Format: biochemical
Condition Parameters: 100 μM test compound, spinach thylakoid membranes, DCPIP 120 μM, 10 min at 22° C. with exposure to light; read-out: Effect (inhibition of PS II activity)
The entries below come with measured inhibition at 100 µM (stock) values attached.

Example entries and their recorded answers appear below.
CC1=C(Cl)C(O)N(c2nc(C3(C)CC3)ns2)C1=O (stereo not drawn) [I.4-335]	50 to 70%
CC1=C(Cl)C(O)N(c2nc(C3CC3)ns2)C1=O (stereo not drawn) [I.4-11]	> 90%
CCc1nsc(N2C(=O)C(C)=C(C)C2O)n1 (stereo not drawn) [I.2-3]	> 90%
CC1=C(Cl)C(=O)N(c2nc(C3CC3)ns2)C1O (stereo not drawn) [I.3-11]	> 90%
CC(C)c1nsc(N2C(=O)N(C)CC2O)n1 (stereo not drawn) [I.13-5]	70 to 90%
CC1=C(C)C(O)N(c2nc(C3CC3)ns2)C1=O (stereo not drawn) [I.2-11]	> 90%
COCc1nsc(N2C(=O)C(C)=C(C)C2O)n1 (stereo not drawn) [I.2-122]	50 to 70%
CCCc1nsc(N2C(=O)C(C)=C(C)C2O)n1 (stereo not drawn) [I.2-4]	> 90%
CN1CC(O)N(c2ncns2)C1=O (stereo not drawn) [I.13-1]	50 to 70%
CC1=C(Cl)C(=O)N(c2nc(C3(C)CC3)ns2)C1O (stereo not drawn) [I.3-335]	> 90%

Query CC1=C(C)C(O)N(c2nc(C(C)C)ns2)C1=O (stereo not drawn) [I.2-5] yields inhibition at 100 µM (stock) of > 90%

Query COc1nsc(N2C(=O)C(C)=C(C)C2O)n1 (stereo not drawn) [I.2-363] yields inhibition at 100 µM (stock) of > 90%

---

Test system: Pharbitis purpurea
Test Method Notes: Post-emergence herbicidal action
Type: in vivo
Condition Parameters: 1280 g/ha, about 3 weeks after treatment
The entries below come with measured Pharbitis purpurea, herbicidal activity rated visually values attached.
Report the value in % with no unit label.

CC(C)c1nsc(N2C(=O)N(C)CC2O)n1 (centres unmarked)	90
CC1=C(Cl)C(=O)N(c2nc(C3CC3)ns2)C1O (centres unmarked)	100

Query CC1=C(C)C(O)N(c2nc(C(C)C)ns2)C1=O (centres unmarked) yields Pharbitis purpurea, herbicidal activity rated visually of 100

Query CN1CC(O)N(c2ncns2)C1=O (centres unmarked) yields Pharbitis purpurea, herbicidal activity rated visually of 90

Query CCCc1nsc(N2C(=O)C(C)=C(C)C2O)n1 (centres unmarked) yields Pharbitis purpurea, herbicidal activity rated visually of 90

---

Assayed Target: photosystem II (PS II) (Spinacia oleracea)
Construct: the chloroplasts were osmotically ruptured and the thylakoid membranes were then obtained by centrifugation; from tissue; host or cells: fresh spinach leaves; thylakoid membranes isolated from chloroplasts
Test Method Notes: Measurement of the PS II activity in thylakoid membranes (DCPIP reduction)
Type: biochemical
Condition Parameters: 100 μM test compound, spinach thylakoid membranes, DCPIP 120 μM, 10 min at 22° C. with exposure to light
Measured Endpoint: Effect (inhibition of PS II activity)

CC1=C(C)C(O)N(c2nc(SCCOC(F)(F)F)ns2)C1=O (centres unmarked)	++++ (inhibition≥90%)
CC1=C(C)C(O)N(c2nc(C(C)(C)C)ns2)C1=O (centres unmarked)	+++ (90%≥inhibition≥70%)
CC1=C(C)C(O)N(c2nc(-c3ccccc3)ns2)C1=O (centres unmarked)	+++ (90%≥inhibition≥70%)
CC(C)c1nsc(N2C(=O)C(C3CCCCC3)=C(Cl)C2O)n1 (centres unmarked)	+++ (90%≥inhibition≥70%)

# evaluate next
Query CC1=C(Br)C(O)N(c2nc(C3CC3)ns2)C1=O (centres unmarked) yields Effect (inhibition of PS II activity) of ++++ (inhibition≥90%)

---

Assayed Target: photosystem II (PS II) (Spinacia oleracea, UniProt P69560)
Construct: the chloroplasts were osmotically ruptured and the thylakoid membranes were then obtained by centrifugation; from tissue; host or cells: fresh spinach leaves; thylakoid membranes isolated from chloroplasts
Test Method Notes: Measurement of the PS II activity in thylakoid membranes (DCPIP reduction)
Assay type: biochemical
Condition Parameters: 100 μM test compound, spinach thylakoid membranes, DCPIP 120 μM, 10 min at 22° C. with exposure to light
Measured Endpoint: Effect (inhibition of PS II activity)

Example entries and their recorded answers appear below.
CSc1nsc(N2C(=O)C(C)=C(C)C2O)n1 (centres unmarked)	+++ (90%≥inhibition≥70%)
COc1nsc(N2C(=O)C(C)=C(Cl)C2O)n1 (centres unmarked)	++++ (inhibition≥90%)
CCc1nsc(N2C(=O)N(C)CC2O)n1 (centres unmarked)	+++ (90%≥inhibition≥70%)
CCCc1nsc(N2C(=O)C(Br)=C(C)C2O)n1 (centres unmarked)	++++ (inhibition≥90%)

Query CCc1nsc(N2C(=O)C(C)=C(Cl)C2O)n1 (centres unmarked) yields Effect (inhibition of PS II activity) of ++++ (inhibition≥90%)

Query CCc1nsc(N2C(=O)C(Br)=C(C)C2O)n1 (centres unmarked) yields Effect (inhibition of PS II activity) of ++++ (inhibition≥90%)

Query CCCc1nsc(N2C(=O)C(Cl)=C(C)C2O)n1 (centres unmarked) yields Effect (inhibition of PS II activity) of ++++ (inhibition≥90%)

---

Test system: Amaranthus retroflexus
Test Method Notes: Post-emergence herbicidal action
Type: in vivo
Condition Parameters: 1280 g/ha, about 3 weeks after treatment
The entries below come with measured Amaranthus retroflexus, herbicidal activity rated visually values attached.
Report the value in % with no unit label.

CN1CC(O)N(c2ncns2)C1=O (centres unmarked) [I.13-1]	100
CC1=C(C)C(O)N(c2nc(C(C)C)ns2)C1=O (centres unmarked) [I.2-5]	100

Query CC1=C(Cl)C(=O)N(c2nc(C3CC3)ns2)C1O (centres unmarked) [I.3-11] yields Amaranthus retroflexus, herbicidal activity rated visually of 100

Query CC(C)c1nsc(N2C(=O)N(C)CC2O)n1 (centres unmarked) [I.13-5] yields Amaranthus retroflexus, herbicidal activity rated visually of 100

Query COC(=O)OC1C(C)=C(C)C(=O)N1c1nc(C2CC2)ns1 (centres unmarked) [I.17-11] yields Amaranthus retroflexus, herbicidal activity rated visually of 100

---

Assayed Target: photosystem II (PS II) (Spinacia oleracea, UniProt P69560)
Construct: the chloroplasts were osmotically ruptured and the thylakoid membranes were then obtained by centrifugation; from tissue; host or cells: fresh spinach leaves; thylakoid membranes isolated from chloroplasts
Test Method Notes: Measurement of the PS II activity in thylakoid membranes (DCPIP reduction)
Format: biochemical
Condition Parameters: 100 μM test compound, spinach thylakoid membranes, DCPIP 120 μM, 10 min at 22° C. with exposure to light
Measured Endpoint: Effect (inhibition of PS II activity)

CC1=C(C)C(O)N(c2nc(C3(C)CC3)ns2)C1=O (stereo not shown)	++++ (inhibition≥90%)
COc1ccc(-c2nsc(N3C(=O)C(C)=C(C)C3O)n2)cc1 (stereo not shown)	++++ (inhibition≥90%)
